B1: PhoQ; a variant is named by its letters at X, in order, P23837 (parent)
chain: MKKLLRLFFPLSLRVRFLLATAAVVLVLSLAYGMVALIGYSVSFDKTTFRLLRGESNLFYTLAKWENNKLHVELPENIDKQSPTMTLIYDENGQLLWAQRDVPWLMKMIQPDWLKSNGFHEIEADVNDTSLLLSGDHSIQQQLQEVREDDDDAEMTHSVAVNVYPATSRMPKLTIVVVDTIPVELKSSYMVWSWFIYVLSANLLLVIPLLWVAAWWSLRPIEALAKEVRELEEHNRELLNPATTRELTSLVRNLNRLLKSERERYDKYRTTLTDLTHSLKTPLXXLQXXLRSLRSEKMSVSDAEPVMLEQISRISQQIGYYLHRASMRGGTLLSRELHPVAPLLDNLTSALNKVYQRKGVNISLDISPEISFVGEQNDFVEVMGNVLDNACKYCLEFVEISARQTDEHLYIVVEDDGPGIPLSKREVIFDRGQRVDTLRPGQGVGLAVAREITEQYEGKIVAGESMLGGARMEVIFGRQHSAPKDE

variants of: B1; assay: enrichment ratio after two sorts for PhoP signalling (ratio (wild type AVST 3.29)); higher = more functional; settings: with PhoP (E. coli)
Over roughly 140,000 sequences, “enrichment ratio after two sorts for PhoP signalling” has its median near 0; the highest 2% begin near 11. For the sample, the highest values were picked, then their nearest neighbours and some sequences at random.
# Lookup of reported enrichment ratio keyed by entry

Sample records with enrichment ratio:
**Query** Name the reported enrichment ratio value associated with the variant EQNT
**Result** ≤ 0.25

**Query** // lookup enrichment ratio for GIHS
**Result** ≤ 0.25

**Query** If you can, please state the reported enrichment ratio value of MGMG .
**Result** 42.5

**Query** Fill in the blank: the reported enrichment ratio of WEQY is ____.
**Result** ≤ 0.25

**Query** Consider the variant shown here: TCSM What is its recorded enrichment ratio?
**Result** 18.9

Next:
**Query** I would be grateful if you could share the reported enrichment ratio for VCSM .
**Result** 3.67

**Query** # lookup: enrichment ratio of MGTG
**Result** ≤ 0.25

**Query** What does the record list as enrichment ratio for TSCV ?
**Result** 17.3

**Query** // lookup enrichment ratio for WYHV
**Result** ≤ 0.25

**Query** Which enrichment ratio value belongs to GFIS ?
**Result** ≤ 0.25

**Query** What value of measured enrichment ratio is listed for RQFP ?
**Result** ≤ 0.25

**Query** GET /values?readout=enrichment ratio&item= PACG
**Result** ≤ 0.25

**Query** Which enrichment ratio is reported for this variant? MGME
**Result** 13

**Query** Would you kindly share the measured enrichment ratio for GNFR ?
**Result** ≤ 0.25

**Query** Request the reported enrichment ratio associated with SHYK
**Result** ≤ 0.25

**Query** What value of enrichment ratio has been reported for the following variant? PQPN
**Result** ≤ 0.25

**Query** Given the entry TCVP , report its measured enrichment ratio.
**Result** ≤ 0.25

**Query** Fill in: enrichment ratio of TCNY is ___
**Result** 9.63

**Query** Request the reported enrichment ratio associated with SCLV
**Result** 9.82

**Query** Dear colleague, I am looking for the recorded enrichment ratio of the following variant: KCAS
**Result** ≤ 0.25

**Query** Any idea what enrichment ratio was measured for WRAR ?
**Result** ≤ 0.25

**Query** Could you share which enrichment ratio value was measured for RSKL ?
**Result** ≤ 0.25
